The reported numbers originate from ChEMBL document CHEMBL3885861.

Species on record: Rattus norvegicus
Test: Open TG-GATES - Regimen: Single
Assay type: toxicity, organism-based, Sprague-Dawley
Parameters: regimen Single, gender Male, age 6 weeks
Conditions: in vivo, po, 1000 mg/kg, 24 h, tissue Blood, route gavage, dose level High
Each item that follows carries a reported Fbg.
Hi! Could you send only the number? It should be in mg/dL, unit omitted.

O=C(O)c1cc(/N=N/c2ccc(S(=O)(=O)Nc3ccccn3)cc2)ccc1O
216.2
O=C(O)c1cn(C2CC2)c2cc(N3CCNCC3)c(F)cc2c1=O
219.4
CCc1cc(C(N)=S)ccn1 [ETHIONAMIDE]
186.4

[ask] Read the entry Clc1ccccc1CN1CCc2sccc2C1 and write its reported Fbg.
[reply] 209
